Origin of values: patent US9309242B2

# BAF3-FGFR3 (MIN IL3) pIC50 per entry
molecular target: Ba/F3-FGFR3-transfected cells (Homo sapiens); construct: BAF3-FGFR3 (MIN IL3) pIC50; other: minus IL3; assay: Ba/F3-FGFR3 (minus IL3) cellular proliferation assay, Alamar Blue; assay type: cell-based
Sequence (P22607 whole entry, change not shown): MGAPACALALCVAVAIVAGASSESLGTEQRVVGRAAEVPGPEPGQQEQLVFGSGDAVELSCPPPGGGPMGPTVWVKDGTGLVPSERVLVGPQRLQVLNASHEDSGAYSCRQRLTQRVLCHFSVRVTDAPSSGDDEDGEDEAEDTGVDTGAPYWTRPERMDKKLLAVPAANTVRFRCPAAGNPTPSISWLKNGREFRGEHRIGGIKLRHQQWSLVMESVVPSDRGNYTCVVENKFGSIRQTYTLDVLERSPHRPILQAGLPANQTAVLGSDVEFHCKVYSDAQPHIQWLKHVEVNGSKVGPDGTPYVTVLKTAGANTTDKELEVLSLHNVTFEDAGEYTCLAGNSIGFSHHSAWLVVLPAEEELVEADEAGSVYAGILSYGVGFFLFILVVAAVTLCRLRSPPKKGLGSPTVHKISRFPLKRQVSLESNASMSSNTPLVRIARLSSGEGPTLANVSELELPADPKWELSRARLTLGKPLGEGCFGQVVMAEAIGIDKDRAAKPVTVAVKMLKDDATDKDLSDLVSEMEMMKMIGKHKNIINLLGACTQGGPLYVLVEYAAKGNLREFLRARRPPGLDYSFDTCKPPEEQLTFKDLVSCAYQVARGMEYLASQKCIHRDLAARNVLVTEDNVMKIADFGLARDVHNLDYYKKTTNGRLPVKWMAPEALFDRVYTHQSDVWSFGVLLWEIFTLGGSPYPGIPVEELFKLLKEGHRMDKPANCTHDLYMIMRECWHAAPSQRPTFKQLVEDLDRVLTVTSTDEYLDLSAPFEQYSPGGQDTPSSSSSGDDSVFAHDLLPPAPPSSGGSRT

// worked examples, BAF3-FGFR3 (MIN IL3) pIC50 included
[
  {
    "compound": "COc1cc(OC)cc(N(Cc2ncc[nH]2)c2ccc3ncc(-c4cccnc4)nc3n2)c1",
    "BAF3-FGFR3 (MIN IL3) pIC50": "~7.76"
  },
  {
    "compound": "COc1cc(OC)c(F)c(N(CC2CC(O)C(=O)N2)c2ccc3ncc(-c4cnn(C)c4)nc3n2)c1 (centres unmarked)",
    "BAF3-FGFR3 (MIN IL3) pIC50": "~7.1"
  },
  {
    "compound": "COc1cc(OC)cc(N(Cc2nnc(N)o2)c2ccc3ncc(-c4cnn(C)c4)nc3n2)c1",
    "BAF3-FGFR3 (MIN IL3) pIC50": "~7.15"
  },
  {
    "compound": "COc1cc(/N=c2\\ccc3ncc(-c4cnn(C)c4)nc3n2Cc2cc(C)no2)c(F)c(OC)c1",
    "BAF3-FGFR3 (MIN IL3) pIC50": "~8.15"
  }
]

Prompt line: Look up BAF3-FGFR3 (MIN IL3) pIC50 of COc1cc(OC)c(F)c(N(CCNC(C)=O)c2ccc3ncc(-c4cnn(C)c4)nc3n2)c1 and report it.
Response line: ~8.11

---

target: FGFR4 (h) (Homo sapiens); assay: FGFR4 (enzymatic assay), TR-FRET; assay type: biochemical; settings: FGFR 4 pIC50, enzymatic assay
# IC50 per entry

// worked examples, IC50 included
[
  {
    "structure.as.smiles": "COc1cc(OC)cc(N(CCNC2COC2)c2ccc3ncc(-c4cnn(C)c4)nc3n2)c1",
    "IC50": "12.9 nM"
  },
  {
    "structure.as.smiles": "COc1cc(OC)cc(N(CCCN2CCCC2=O)c2ccc3ncc(-c4cnn(C)c4)nc3n2)c1",
    "IC50": "11.7 nM"
  }
]

Let us move to another entry and its IC50.
Prompt line: Look up IC50 of CNCCN(c1ccc2ncc(-c3cnn(C)c3)nc2n1)c1c(F)c(O)cc(OC)c1F and report it.
Response line: 9.55 nM

---

# IC50 per entry
target: FGFR4 (h) (Homo sapiens, UniProt P22455); assay: FGFR4 (enzymatic assay), TR-FRET; assay type: biochemical; details: FGFR 4 pIC50, enzymatic assay
Sequence (P22455 22-802): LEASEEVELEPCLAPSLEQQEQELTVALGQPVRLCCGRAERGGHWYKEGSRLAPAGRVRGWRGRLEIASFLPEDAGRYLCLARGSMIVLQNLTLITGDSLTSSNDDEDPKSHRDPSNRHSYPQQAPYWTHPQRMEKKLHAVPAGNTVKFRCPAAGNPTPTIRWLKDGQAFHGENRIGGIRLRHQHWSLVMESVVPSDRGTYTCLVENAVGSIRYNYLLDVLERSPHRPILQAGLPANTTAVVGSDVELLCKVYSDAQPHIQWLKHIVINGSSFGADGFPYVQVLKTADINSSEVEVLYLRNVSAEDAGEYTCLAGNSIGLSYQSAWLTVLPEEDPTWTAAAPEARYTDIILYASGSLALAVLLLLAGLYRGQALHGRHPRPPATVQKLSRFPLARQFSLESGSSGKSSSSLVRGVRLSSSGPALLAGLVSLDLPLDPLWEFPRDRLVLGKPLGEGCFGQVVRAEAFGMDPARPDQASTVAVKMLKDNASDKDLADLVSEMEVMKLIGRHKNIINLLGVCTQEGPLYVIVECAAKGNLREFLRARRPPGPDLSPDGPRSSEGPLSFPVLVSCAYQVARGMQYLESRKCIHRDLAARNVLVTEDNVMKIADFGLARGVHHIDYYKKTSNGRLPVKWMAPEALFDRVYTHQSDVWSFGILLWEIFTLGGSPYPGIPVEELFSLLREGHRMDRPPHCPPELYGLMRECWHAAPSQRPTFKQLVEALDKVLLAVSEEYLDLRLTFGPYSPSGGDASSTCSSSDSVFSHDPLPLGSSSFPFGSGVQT
State just the number; it will be interpreted in nM.

// worked examples, IC50 included
[
  {
    "molecule": "COc1cc(OC)cc(N(CCS(C)(=O)=O)c2ccc3ncc(-c4cnn(CCS(C)(=O)=O)c4)nc3n2)c1 [Compound 275]",
    "unit.info": "nM",
    "IC50": 12
  },
  {
    "molecule": "CNC(=O)c1cc(F)cc(N(Cc2ncc[nH]2)c2ccc3ncc(-c4cnn(C)c4)nc3n2)c1 [Compound 261]",
    "unit.info": "nM",
    "IC50": 6.03
  },
  {
    "molecule": "COc1cc(OC)c(F)c(N(CC2CCC(=O)N2)c2ccc3ncc(-c4cnn(CC(C)(C)O)c4)nc3n2)c1 (centres unmarked) [Compound 285]",
    "unit.info": "nM",
    "IC50": 7.24
  },
  {
    "molecule": "COc1cc(OC)cc(N(CC2CCCCO2)c2ccc3ncc(-c4cnn(C)c4)nc3n2)c1 (centres unmarked) [Compound 129]",
    "unit.info": "nM",
    "IC50": 7.76
  }
]

Let us move to another entry and its IC50.
Prompt line: Look up IC50 of COc1cc(OC)cc(N(CC2CC(O)C(=O)N2)c2ccc3ncc(-c4cnn(C)c4)nc3n2)c1 (centres unmarked) [Compound 271] and report it.
Response line: 7.76

---

molecular target: FGFR4 (h) (Homo sapiens); experiment: FGFR4 (enzymatic assay), TR-FRET; format: biochemical; settings: FGFR 4 pIC50, enzymatic assay
assay.metric: log10 IC50 (log10 of the value in nM)
# log10 transformed; quantity=IC50; unit=nM

Prompt line: Look up log10 IC50 of COc1cc(OC)c(F)c(N(Cc2c(C)noc2C)c2ccc3ncc(-c4cnn(C)c4)nc3n2)c1 and report it.
Response line: 1.29

Prompt line: Look up log10 IC50 of COc1cc(OC)c(F)c(N(Cc2nncn2C)c2ccc3ncc(-c4cnn(C)c4)nc3n2)c1 and report it.
Response line: 1.24

Prompt line: Look up log10 IC50 of COc1cc(OC)c(F)c(N(CCN2CCCC2=O)c2ccc3ncc(-c4cnn(C)c4)nc3n2)c1 and report it.
Response line: 1.42

Prompt line: Look up log10 IC50 of COc1cc(OC)c(F)c(N(CC2CCCCO2)c2ccc3ncc(-c4cnn(C)c4)nc3n2)c1 (stereo not shown) and report it.
Response line: 0.62

Prompt line: Look up log10 IC50 of COc1cc(OC)c(F)c(N(CCCN2CCCC2=O)c2ccc3ncc(-c4cnn(C)c4)nc3n2)c1 and report it.
Response line: 0.51

Prompt line: Look up log10 IC50 of COc1cc(OC)c(F)c(N(Cc2ncc[nH]2)c2ccc3ncc(-c4ccncc4)nc3n2)c1 and report it.
Response line: 0.36

Prompt line: Look up log10 IC50 of COc1cc(/N=c2\ccc3ncc(-c4cnn(CC(C)(C)O)c4)nc3n2CC(C)(C)O)c(F)c(OC)c1 (single isomer, unassigned) and report it.
Response line: 0.50

Prompt line: Look up log10 IC50 of COc1cc(OC)c(F)c(/N=c2\ccc3ncc(-c4cnn(C)c4)nc3n2CCN(C2COC2)C2COC2)c1F and report it.
Response line: -0.01

Prompt line: Look up log10 IC50 of COc1ccc(Cl)c(N(CC2CCC(=O)N2)c2ccc3ncc(-c4cnn(C)c4)nc3n2)c1Cl (stereo not shown) [Compound 94] and report it.
Response line: 2.83

---

biological target: Ba/F3-KDR-transfected cells (Homo sapiens, UniProt P35968); construct: BAF3-KDR (MIN IL3) pIC50; other: minus IL3; assay: Ba/F3-KDR (minus IL3) cellular proliferation assay, Alamar Blue; type: cell-based
Sequence (P35968 whole entry, change not shown): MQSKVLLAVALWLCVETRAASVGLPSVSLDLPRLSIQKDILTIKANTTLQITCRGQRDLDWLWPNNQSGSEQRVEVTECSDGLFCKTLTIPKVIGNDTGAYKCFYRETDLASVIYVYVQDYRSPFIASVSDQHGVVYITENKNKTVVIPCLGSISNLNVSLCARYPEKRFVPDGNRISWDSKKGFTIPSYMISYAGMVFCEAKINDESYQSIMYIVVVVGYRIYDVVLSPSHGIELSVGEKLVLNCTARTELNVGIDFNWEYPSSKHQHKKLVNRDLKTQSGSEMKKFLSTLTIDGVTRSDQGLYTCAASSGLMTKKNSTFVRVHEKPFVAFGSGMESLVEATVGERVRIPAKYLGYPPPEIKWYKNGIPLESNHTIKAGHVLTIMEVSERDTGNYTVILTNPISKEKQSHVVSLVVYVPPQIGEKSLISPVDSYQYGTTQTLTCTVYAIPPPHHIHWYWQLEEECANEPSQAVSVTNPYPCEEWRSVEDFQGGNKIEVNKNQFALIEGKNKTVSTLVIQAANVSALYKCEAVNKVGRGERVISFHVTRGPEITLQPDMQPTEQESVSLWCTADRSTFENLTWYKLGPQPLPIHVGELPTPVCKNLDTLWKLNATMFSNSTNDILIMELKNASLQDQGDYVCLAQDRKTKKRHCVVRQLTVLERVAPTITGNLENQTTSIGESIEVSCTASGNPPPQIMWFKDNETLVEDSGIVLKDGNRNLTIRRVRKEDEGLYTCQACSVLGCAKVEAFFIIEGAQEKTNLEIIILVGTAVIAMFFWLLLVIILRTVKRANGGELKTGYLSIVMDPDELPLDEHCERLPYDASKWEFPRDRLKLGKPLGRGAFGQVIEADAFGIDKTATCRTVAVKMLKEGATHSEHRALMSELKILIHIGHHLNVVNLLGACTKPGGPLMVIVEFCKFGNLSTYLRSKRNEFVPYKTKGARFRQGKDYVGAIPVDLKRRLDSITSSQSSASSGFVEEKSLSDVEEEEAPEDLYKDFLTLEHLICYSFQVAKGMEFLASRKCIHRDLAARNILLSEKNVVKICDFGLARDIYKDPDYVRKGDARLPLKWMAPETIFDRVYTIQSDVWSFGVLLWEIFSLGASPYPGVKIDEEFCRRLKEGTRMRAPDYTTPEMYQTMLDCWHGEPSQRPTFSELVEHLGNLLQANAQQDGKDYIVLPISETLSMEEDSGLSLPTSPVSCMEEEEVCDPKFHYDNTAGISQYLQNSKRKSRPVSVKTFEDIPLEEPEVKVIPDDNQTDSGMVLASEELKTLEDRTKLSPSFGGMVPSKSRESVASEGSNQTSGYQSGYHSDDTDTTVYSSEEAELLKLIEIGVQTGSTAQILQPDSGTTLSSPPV
Counter-ions that a name gives are not always drawn.
assay.metric: BAF3-KDR (MIN IL3) pIC50
No unit in the answer, please; the number alone is enough.

[
  {
    "compound": "COc1cc(OC)cc(N(Cc2ncccn2)c2ccc3ncc(-c4cnn(C)c4)nc3n2)c1",
    "tgt": "Ba/F3-KDR-transfected cells (Homo sapiens, UniProt P35968)",
    "BAF3-KDR (MIN IL3) pIC50": 5.5
  },
  {
    "compound": "COc1cc(OC)c(F)c(N(Cc2nc3c([nH]2)CCNC3)c2ccc3ncc(-c4cnn(C)c4)nc3n2)c1",
    "tgt": "Ba/F3-KDR-transfected cells (Homo sapiens, UniProt P35968)",
    "BAF3-KDR (MIN IL3) pIC50": 5.10
  },
  {
    "compound": "COc1cc(OC)c(F)c(N(CC(O)COC(C)C)c2ccc3ncc(-c4cnn(C)c4)nc3n2)c1 (single isomer, unassigned) [Compound 79]",
    "tgt": "Ba/F3-KDR-transfected cells (Homo sapiens, UniProt P35968)",
    "BAF3-KDR (MIN IL3) pIC50": 5.73
  },
  {
    "compound": "COc1cc(OC)c(F)c(N(CCN2CCOCC2)c2ccc3ncc(-c4cnn(C)c4)nc3n2)c1",
    "tgt": "Ba/F3-KDR-transfected cells (Homo sapiens, UniProt P35968)",
    "BAF3-KDR (MIN IL3) pIC50": 5.89
  },
  {
    "compound": "COc1cc(OC)c(F)c(N(CC2CCOC2)c2ccc3ncc(-c4cnn(C)c4)nc3n2)c1 (single isomer, unassigned) [Compound 172]",
    "tgt": "Ba/F3-KDR-transfected cells (Homo sapiens, UniProt P35968)",
    "BAF3-KDR (MIN IL3) pIC50": 5.35
  },
  {
    "compound": "COc1cc(OC)c(F)c(N(Cc2cnn(C)c2)c2ccc3ncc(-c4cnn(C)c4)nc3n2)c1",
    "tgt": "Ba/F3-KDR-transfected cells (Homo sapiens, UniProt P35968)",
    "BAF3-KDR (MIN IL3) pIC50": 5.79
  }
]

Prompt line: Look up BAF3-KDR (MIN IL3) pIC50 of COc1cc(OC)cc(N(CC2CCCCO2)c2ccc3ncc(-c4cnn(C)c4)nc3n2)c1 (stereo not drawn) and report it.
Response line: 5.33

Prompt line: Look up BAF3-KDR (MIN IL3) pIC50 of COc1cc(OC)c(F)c(N(Cc2nc[nH]n2)c2ccc3ncc(-c4cnn(C)c4)nc3n2)c1 and report it.
Response line: 6.24

Prompt line: Look up BAF3-KDR (MIN IL3) pIC50 of COc1cc(OC)cc(N(CCNC(C)C)c2ccc3ncc(-c4cnn(C)c4)nc3n2)c1 and report it.
Response line: 5.6

Prompt line: Look up BAF3-KDR (MIN IL3) pIC50 of COc1cc(/N=c2\ccc3ncc(-c4cnn(C)c4)nc3n2CCCO)cc(OC)c1 and report it.
Response line: 6.4

Prompt line: Look up BAF3-KDR (MIN IL3) pIC50 of COc1cc(OC)c(F)c(N(CC2CCC(=O)N2)c2ccc3ncc(-c4cnn(C)c4)nc3n2)c1F (stereo not drawn) [Compound 192] and report it.
Response line: 6.11

Prompt line: Look up BAF3-KDR (MIN IL3) pIC50 of COc1cc(OC)c(F)c(N(Cc2ncc[nH]2)c2ccc3ncc(-c4cnn(C)c4)nc3n2)c1 [23-fumarate salt] and report it.
Response line: 6.67

Prompt line: Look up BAF3-KDR (MIN IL3) pIC50 of COc1cc(OC)c(F)c(N(CC(=O)N2CCNCC2)c2ccc3ncc(-c4cnn(C)c4)nc3n2)c1 and report it.
Response line: 5.06

Prompt line: Look up BAF3-KDR (MIN IL3) pIC50 of CCN(c1ccc2ncc(-c3cnn(C)c3)nc2n1)c1c(F)c(OC)cc(OC)c1F and report it.
Response line: 6.16
